system: velvetleaf (Abutilon theophrasti, ABUTH); assay: Post-emerge test, greenhouse herbicide activity screening; type: in vivo; conditions: post-emerge, 250 g ai/ha, 14 days after application, rating scale 0-100
For each record, write down the corresponding phytotoxicity rating ABUTH.
Give bare numbers.

These solved cases illustrate the format of a correct answer.
MOLECULE	ASSAY SYSTEM	PROPERTY	NUMERIC VALUE
COc1c(Cl)cc(F)c(-n2c(=O)cc(C(F)(F)F)n(C)c2=O)c1NC(=O)OC(C)c1ccccc1 (stereo not drawn)	velvetleaf (Abutilon theophrasti, ABUTH)	phytotoxicity rating ABUTH	10
COc1c(Cl)cc(F)c(-n2c(=O)cc(C(F)(F)F)n(C)c2=O)c1NC(=O)C1CC1	velvetleaf (Abutilon theophrasti, ABUTH)	phytotoxicity rating ABUTH	90
Cn1c(C(F)(F)F)cc(=O)n(-c2ccc(Cl)cc2NC(=O)Oc2ccccc2)c1=O	velvetleaf (Abutilon theophrasti, ABUTH)	phytotoxicity rating ABUTH	95
COc1c(Cl)cc(F)c(-n2c(=O)cc(C(F)(F)F)n(C)c2=O)c1NC(=O)OCc1c(Cl)cccc1Cl	velvetleaf (Abutilon theophrasti, ABUTH)	phytotoxicity rating ABUTH	100
COc1c(Cl)cc(F)c(-n2c(=O)cc(C(F)(F)F)n(C)c2=O)c1NC(=O)OCc1ccccc1C(F)(F)F	velvetleaf (Abutilon theophrasti, ABUTH)	phytotoxicity rating ABUTH	100

For every record below, what is its phytotoxicity rating ABUTH?
1. COc1c(Cl)cc(F)c(-n2c(=O)cc(C(F)(F)F)n(C)c2=O)c1NC(=O)OCc1ccc2c(c1)OCO2
2. Cc1ccc(-n2c(=O)cc(C(F)(F)F)n(C)c2=O)c(NC(=O)c2ccc3ccccc3c2)c1
3. COc1c(Cl)cc(F)c(-n2c(=O)cc(C(F)(F)F)n(C)c2=O)c1NC(=O)C=Cc1ccc(Cl)cc1
4. COc1c(Cl)cc(F)c(-n2c(=O)cc(C(F)(F)F)n(C)c2=O)c1NC(=O)OCc1ccc(C)c(C)c1
5. Cc1c(Cl)cc(F)c(-n2c(=O)cc(C(F)(F)F)n(C)c2=O)c1NC(=O)c1ccc2ccccc2c1
6. COc1c(Cl)cc(F)c(-n2c(=O)cc(C(F)(F)F)n(C)c2=O)c1NC(=O)NCc1ccccc1
7. Cc1c(Cl)cc(F)c(-n2c(=O)cc(C(F)(F)F)n(C)c2=O)c1NC(=O)OCCc1ccccc1
8. CCCCCC(=O)Nc1c(OC)c(Cl)cc(F)c1-n1c(=O)cc(C(F)(F)F)n(C)c1=O

[reply]
1. 100
2. 99
3. 100
4. 100
5. 100
6. 100
7. 100
8. 100

* * *

tested on: redroot pigweed (Amaranthus retroflexus, AMARE); assay: Post-emerge test, greenhouse herbicide activity screening; assay type: in vivo; conditions: Amaranthus retroflexus, post-emergence, 336 h; post-emerge, 250 g ai/ha, phytotoxicity rating 0-100 at 14 days after application; read-out: Post-emerge Herbicidal Activity AMARE
PROPERTY: pest or weed control at 250 g/ha (%)
Give bare numbers, in %.

Previously resolved entries follow.
QUERY SMILES	ASSAY SYSTEM	pest or weed control at 250 g/ha (%)
Cc1nn(-c2c(Cl)cc(Cl)cc2NC(=O)c2ccc3ccccc3c2)c(=O)n1C(F)F	redroot pigweed (Amaranthus retroflexus, AMARE)	90
COc1c(Cl)cc(F)c(-c2nn(C)c(C(F)(F)F)c2Cl)c1N	redroot pigweed (Amaranthus retroflexus, AMARE)	100
COc1c(Cl)cc(F)c(-n2nc(C)n(C(F)F)c2=O)c1NC(=O)c1ccc2ccccc2c1	redroot pigweed (Amaranthus retroflexus, AMARE)	100
Cc1nn(-c2c(N)cc(Cl)cc2F)c(=O)n1C(F)F	redroot pigweed (Amaranthus retroflexus, AMARE)	100
COc1c(Cl)cc(Cl)c(-n2nc(C)n(C(F)F)c2=O)c1NC(=O)c1ccc2ccccc2c1	redroot pigweed (Amaranthus retroflexus, AMARE)	70

// each compound listed below needs its pest or weed control at 250 g/ha
1. COc1c(Cl)cc(F)c(-c2nn(C)c(C(F)(F)F)c2Cl)c1NC(=O)c1ccc2ccccc2c1
2. Cc1nn(-c2c(F)cc(Cl)cc2NC(=O)c2ccc3ccccc3c2)c(=O)n1C(F)F

[reply]
1. 70
2. 80

* * *

test system: johnsongrass (Sorghum halepense, SORHA); test: Post-emerge test, greenhouse herbicide activity screening; type: in vivo; details: 250 g ai/ha; phytotoxicity rating 0-100 (0 no damage, 100 complete death), 14 days after application
PROPERTY: Post-emerge Herbicidal Activity SORHA
Answers are plain numbers.

Recorded results for 3 molecules are shown here.
MOLECULE	Post-emerge Herbicidal Activity SORHA
COc1c(Cl)cc(F)c(-n2c(=O)cc(C(F)(F)F)n(C)c2=O)c1NC(=O)C(F)(F)F [2-10]	20
Cc1c(Cl)cc(F)c(-n2c(=O)cc(C(F)(F)F)n(C)c2=O)c1N [Compound 1-37]	70
C=C(C)C(=O)N(C(=O)C(=C)C)c1c(OC)c(Cl)cc(F)c1-n1c(=O)cc(C(F)(F)F)n(C)c1=O [2-6]	0

// for each molecule in input: emit Post-emerge Herbicidal Activity SORHA
1. COc1c(Cl)cc(F)c(-n2c(=O)cc(C(F)(F)F)n(C)c2=O)c1NC(=O)C1CCCCC1 [2-19]
2. CCOC(=O)COc1c(Cl)cc(F)c(-n2c(=O)cc(C(F)(F)F)n(C)c2=O)c1N [Compound 1-59]

[reply]
[0, 50]

[ask] Please give the measured Post-emerge Herbicidal Activity SORHA for this molecule: COc1c(Cl)cc(F)c(-n2c(=O)cc(C(F)(F)F)n(C)c2=O)c1NC(=O)CC#N [2-14]
[reply] 0

* * *

system: field corn (Zea mays L., var. Dekalb 535, CORN); experiment: Post-emerge test, crop safety; assay type: in vivo; conditions: 250 g ai/ha; phytotoxicity rating 0-100 (0 no damage, 100 complete death), 14 days after application
PROPERTY: Post-emerge Herbicidal Activity CORN (crop damage)
One number for each entry.

MOLECULE	NUMERIC VALUE
CCOC(=O)C(C)Nc1cc(OC(F)F)cc(F)c1-n1c(=O)cc(C(F)(F)F)n(C)c1=O (centres unmarked) [Compound 1-53]	30
CCCc1ccc(C(=O)N(C(=O)c2ccc(CCC)cc2)c2c(OC)c(Cl)cc(F)c2-n2c(=O)cc(C(F)(F)F)n(C)c2=O)cc1 [2-29]	25
COc1c(Cl)cc(F)c(-n2c(=O)cc(C(F)(F)F)n(C)c2=O)c1NC(=O)C(C)(C)C [2-3]	10

Batch: Post-emerge Herbicidal Activity CORN (crop damage) for all items listed.
1. Cn1c(C(F)(F)F)cc(=O)n(-c2c(N)cc(OC(F)F)cc2F)c1=O [Compound 1-51]
2. CCn1c(C(F)(F)F)cc(=O)n(-c2c(F)cc(Cl)c(OC)c2N)c1=O [Compound 1-15]
3. COc1c(Cl)cc(F)c(-n2c(=O)cc(C(F)(F)F)n(C)c2=O)c1NC(=O)c1ccc(C)c(C)c1 [2-32]
4. CCc1ccc(C(=O)Nc2c(OC)c(Cl)cc(F)c2-n2c(=O)cc(C(F)(F)F)n(C)c2=O)cc1 [2-27]
5. COc1c(Cl)cc(F)c(-n2c(=O)cc(C(F)(F)F)n(N)c2=O)c1N [Compound 1-13]
6. COc1c(Cl)cc(F)c(-n2c(=O)cc(C(F)(F)F)n(C)c2=O)c1N=CN(C)C [Compound 1-31]
7. COC(=O)C(=O)Nc1c(OC)c(Cl)cc(F)c1-n1c(=O)cc(C(F)(F)F)n(C)c1=O [2-15]

[reply]
1. 20
2. 0
3. 95
4. 95
5. 80
6. 0
7. 0

* * *

system: green foxtail (Setaria viridis, SETVI); assay: Post-emerge test, greenhouse herbicide activity screening; format: in vivo; conditions: post-emerge, 63 g ai/ha, phytotoxicity rating 0-100 at 14 days after application
Please provide measured Post-emerge Herbicidal Activity SETVI for the entries that follow.
Numbers only.

Examples with their reported Post-emerge Herbicidal Activity SETVI follow.
QUERY SMILES	ASSAY SYSTEM	Post-emerge Herbicidal Activity SETVI
CCC(=O)Nc1c(Cl)cc(Cl)c(-n2nc(C)n(C(F)F)c2=O)c1N	green foxtail (Setaria viridis, SETVI)	0
C=Cc1ccc(C(=O)Nc2c(OC)c(Cl)cc(F)c2N2C(=O)C3=C(CCCC3)C2=O)cc1	green foxtail (Setaria viridis, SETVI)	40
COc1c(Cl)cc(F)c(N2C(=O)c3ccccc3C2=O)c1NC(=O)c1ccc(F)cc1F	green foxtail (Setaria viridis, SETVI)	20

Now look at this entry.
[ask] Lab note: need Post-emerge Herbicidal Activity SETVI with green foxtail (Setaria viridis, SETVI) for entry "Cc1cccc(COC(=O)Nc2c(C)c(Cl)cc(F)c2-n2c(=O)cc(C(F)(F)F)n(C)c2=O)c1" , please look it up.
[reply] 100

* * *

system: barnyardgrass (Echinochloa crus-galli, ECHCG); assay: Pre-emerge test, greenhouse herbicide activity screening; type: in vivo; conditions: pre-emerge, 63 g ai/ha, 14 days after application, scale 0-100
Can you tell me phytotoxicity rating ECHCG for the items I'm about to list?
Numbers only.

Sample records with phytotoxicity rating ECHCG:
COMPOUND	NUMERIC VALUE
COc1c(Cl)cc(F)c(-n2c(=O)cc(C(F)(F)F)n(C)c2=O)c1NC(=O)CSc1ccc2ccccc2c1	0
COc1c(C#N)cc(F)c(-n2c(=O)cc(C(F)(F)F)n(C)c2=O)c1NC(=O)c1ccc2ccccc2c1 [2-181]	40
Cn1c(C(F)(F)F)cc(=O)n(-c2ccc(C#N)cc2NC(=O)C=Cc2ccccc2)c1=O	30
COc1c(Cl)cc(F)c(-n2c(=O)cc(C(F)(F)F)n(C)c2=O)c1NC(=O)COc1ccc(Cl)cc1	10
CCOC(=O)C(C)SCC(=O)Nc1c(OC)c(Cl)cc(F)c1-n1c(=O)cc(C(F)(F)F)n(C)c1=O (centres unmarked)	0

Quick request: phytotoxicity rating ECHCG for each listed item, please.
1. COc1c(Cl)cc(F)c(-n2c(=O)cc(C(F)(F)F)n(C)c2=O)c1NC(=O)c1cc2ccccc2cc1C
2. COc1c(Cl)cc(F)c(-n2c(=O)cc(C(F)(F)F)n(N)c2=O)c1NC(=O)c1ccc2ccccc2c1
3. COc1c(Cl)cc(F)c(-n2c(=O)cc(C(F)(F)F)n(C)c2=O)c1NC(=O)COc1ccc(F)cc1
4. COc1c(Cl)cc(F)c(-n2c(=O)cc(C(F)(F)F)n(C)c2=O)c1NC(=O)c1ccc2cccc(F)c2c1
5. COc1c(Cl)cc(F)c(-n2c(=O)cc(C(F)(F)F)n(C)c2=O)c1NC(=O)C=Cc1ccccc1[N+](=O)[O-]
6. Cc1c(Cl)cc(F)c(-n2c(=O)cc(C(F)(F)F)n(C)c2=O)c1NC(=O)C=Cc1ccccc1
7. COc1c(C#N)cc(F)c(-n2c(=O)cc(C(F)(F)F)n(C)c2=O)c1NC(=O)c1ccc2ccccc2c1 [2-180]
8. CCOC(=O)C(C)Oc1ccc(-n2c(=O)cc(C(F)(F)F)n(C)c2=O)c(NC(=O)c2ccc3ccccc3c2)c1 (centres unmarked)

[reply]
1. 30
2. 30
3. 65
4. 90
5. 10
6. 40
7. 10
8. 0
